Exercise: for every item that follows, state its recorded hERG current change (%, negative = inhibition) at 10uM.
# testedSystem: human ether-à-go-go-related gene (hERG) potassium channel (human);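 also: peak tail current of the secondary pulse compared with the same well before compound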
# Sequence (Q12809 whole entry, looked up): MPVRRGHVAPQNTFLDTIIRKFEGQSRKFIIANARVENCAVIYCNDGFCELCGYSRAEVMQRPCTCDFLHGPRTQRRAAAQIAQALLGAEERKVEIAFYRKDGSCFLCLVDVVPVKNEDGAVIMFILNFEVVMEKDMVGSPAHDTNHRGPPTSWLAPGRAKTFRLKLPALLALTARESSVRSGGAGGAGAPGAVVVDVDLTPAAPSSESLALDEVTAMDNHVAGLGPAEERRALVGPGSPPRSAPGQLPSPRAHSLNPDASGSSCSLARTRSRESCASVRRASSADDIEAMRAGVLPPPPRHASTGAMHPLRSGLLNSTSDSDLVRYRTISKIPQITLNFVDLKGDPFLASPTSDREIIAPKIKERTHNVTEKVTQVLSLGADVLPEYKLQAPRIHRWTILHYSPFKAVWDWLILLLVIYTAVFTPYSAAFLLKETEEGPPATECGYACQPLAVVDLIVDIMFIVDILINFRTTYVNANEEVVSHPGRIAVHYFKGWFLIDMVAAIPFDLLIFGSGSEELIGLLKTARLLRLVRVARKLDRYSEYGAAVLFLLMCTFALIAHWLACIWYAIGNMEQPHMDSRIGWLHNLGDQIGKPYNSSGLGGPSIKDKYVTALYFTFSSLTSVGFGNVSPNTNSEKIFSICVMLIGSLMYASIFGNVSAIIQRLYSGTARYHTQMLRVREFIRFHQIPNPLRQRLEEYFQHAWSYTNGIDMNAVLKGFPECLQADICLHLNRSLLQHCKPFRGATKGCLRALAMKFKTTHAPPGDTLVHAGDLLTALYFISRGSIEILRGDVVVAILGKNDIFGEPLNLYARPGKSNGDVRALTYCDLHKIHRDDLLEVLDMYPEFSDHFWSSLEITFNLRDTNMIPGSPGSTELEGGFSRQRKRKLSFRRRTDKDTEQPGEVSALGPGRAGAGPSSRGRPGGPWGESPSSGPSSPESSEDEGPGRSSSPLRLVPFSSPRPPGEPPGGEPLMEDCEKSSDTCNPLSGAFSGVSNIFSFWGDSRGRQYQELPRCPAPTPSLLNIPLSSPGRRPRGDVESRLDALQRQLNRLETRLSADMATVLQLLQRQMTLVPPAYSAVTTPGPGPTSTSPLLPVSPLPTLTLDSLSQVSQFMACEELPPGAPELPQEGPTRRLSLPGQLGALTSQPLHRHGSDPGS
# testDescription: primary screen, population patch clamp on CHO cells stably expressing hERG; higher = less effect of the substance
Out of some 310,000 compounds screened, about 14,000 (4.5%) showed an effect of 50% or more. Effects have a minus sign here. For the sample, strong results were picked, then their nearest neighbours and some compounds at random.
Answers are plain numbers, in %.

I'm hoping you can list hERG current change (%, negative = inhibition) at 10uM for every compound here, please.
1. CCC1CCCCN1C(=O)CSc1nc(N)c(NC(=O)c2ccc(OC)c(OC)c2)c(=O)[nH]1 (centres unmarked)
2. CCCOc1ccc(/C(O)=C2/C(=O)C(=O)N(CCCOC)C2c2ccncc2)cc1 (centres unmarked)
3. CC(C)(C)NC(=O)[C@@H]1C[C@@H]2CCCC[C@@H]2CN1C[C@@H](O)[C@H](Cc1ccccc1)NC(=O)[C@H](CC(N)=O)NC(=O)c1ccc2ccccc2n1.CS(=O)(=O)O
4. CC(C)C1N=C2c3ccccc3N=C(SCC#N)N2C1=O (centres unmarked)
5. CCCCOc1ccc(/C(O)=C2/C(=O)C(=O)N(CCCOC)C2c2ccncc2)cc1 (centres unmarked)
6. O=C(CSc1nncc(=O)[nH]1)NC1CCCCC1

[4.63, -53.1, -72.1, 5.14, 18.2, 27]

I'm hoping you can list hERG current change (%, negative = inhibition) at 10uM for every compound here, please.
1. CS(=O)(=O)O.Cc1c(O)cccc1C(=O)N[C@@H](CSc1ccccc1)[C@H](O)CN1C[C@H]2CCCC[C@H]2C[C@H]1C(=O)NC(C)(C)C
2. CCCOc1ccc(/C(O)=C2/C(=O)C(=O)N(CCCOC)C2c2cccnc2)cc1 (centres unmarked)
3. NC(C(=O)O)c1cc(=O)[nH]o1 (centres unmarked)
4. CCCCN(C)C(=O)c1ccc2c(c1)S(=O)(=O)c1ccccc1C2=O
5. CCCNC(=O)COC(=O)c1ccccc1OCc1ccc(Cl)cc1

[-4.69, -5.91, 13.4, -24.4, -0.354]

Data origin, for the record: paper PMC4336329
